Tested on: M17-TAU P301L cells
testMethodNotes: TAU cytotoxicity assay: LDH leakage of retinoic acid incubated M17-TAU P301L cells
Format: cell-based, human
conditions: Homo sapiens, 168 h, reduction of LDH activity of retinoic acid incubated M17-TAU P301L cells, 7 days
observedProperty: EC50 (nM)
Give bare numbers, in nM.

The following compounds have reported results that may help.
>>> measured("O=C(NCCc1c[nH]c2ccc(Cl)cc12)c1cn(C2CCCCC2)nn1")
108
>>> measured("CC(C)c1ccc(N2CCC(C(=O)NCCc3c[nH]c4ccc(Cl)cc34)C2=O)cc1 (stereo not drawn)")
413
>>> measured("O=C(NCCc1c[nH]c2ccc(Cl)cc12)c1cc(-c2ccc(Cl)cc2)on1")
190

For the 7 compounds below, give their EC50 values.
1. CN(C)c1cc(C(=O)NCCc2c[nH]c3ccc(Cl)cc23)no1
2. O=C(NCCc1c[nH]c2ccc(Cl)cc12)c1noc(Cc2cccc(F)c2)n1
3. Cc1cccc(Cc2cc(C(=O)NCCc3c[nH]c4ccc(Cl)cc34)no2)c1
4. Cn1nc(C(=O)NCCc2c[nH]c3ccc(Cl)cc23)cc1-c1cccs1
5. O=C(NCCc1c[nH]c2ccc(Cl)cc12)c1cc(CO)on1
6. COc1ccc(-c2cc(C(=O)NCCc3c[nH]c4ccc(Cl)cc34)no2)cc1
7. CCc1ccccc1N1CCC(C(=O)NCCc2c[nH]c3ccc(Cl)cc23)C1=O (stereo not drawn)

### Response
1. 5290
2. 26
3. 23
4. 21
5. 105
6. 140
7. 1210
